Source of measurements: patent EP4417607A1

Listed below: pIC50 values for each entry.
target: KRAS G12D::SOS1 binding (Homo sapiens, UniProt Q07889); experiment: KRAS G12D::SOS1 binding inhibition (KRAS-G12D/SOS1 binding assay kit, Cisbio); conditions: GTP 10 µM
Sequence (Q07889 whole entry, stated change not applied): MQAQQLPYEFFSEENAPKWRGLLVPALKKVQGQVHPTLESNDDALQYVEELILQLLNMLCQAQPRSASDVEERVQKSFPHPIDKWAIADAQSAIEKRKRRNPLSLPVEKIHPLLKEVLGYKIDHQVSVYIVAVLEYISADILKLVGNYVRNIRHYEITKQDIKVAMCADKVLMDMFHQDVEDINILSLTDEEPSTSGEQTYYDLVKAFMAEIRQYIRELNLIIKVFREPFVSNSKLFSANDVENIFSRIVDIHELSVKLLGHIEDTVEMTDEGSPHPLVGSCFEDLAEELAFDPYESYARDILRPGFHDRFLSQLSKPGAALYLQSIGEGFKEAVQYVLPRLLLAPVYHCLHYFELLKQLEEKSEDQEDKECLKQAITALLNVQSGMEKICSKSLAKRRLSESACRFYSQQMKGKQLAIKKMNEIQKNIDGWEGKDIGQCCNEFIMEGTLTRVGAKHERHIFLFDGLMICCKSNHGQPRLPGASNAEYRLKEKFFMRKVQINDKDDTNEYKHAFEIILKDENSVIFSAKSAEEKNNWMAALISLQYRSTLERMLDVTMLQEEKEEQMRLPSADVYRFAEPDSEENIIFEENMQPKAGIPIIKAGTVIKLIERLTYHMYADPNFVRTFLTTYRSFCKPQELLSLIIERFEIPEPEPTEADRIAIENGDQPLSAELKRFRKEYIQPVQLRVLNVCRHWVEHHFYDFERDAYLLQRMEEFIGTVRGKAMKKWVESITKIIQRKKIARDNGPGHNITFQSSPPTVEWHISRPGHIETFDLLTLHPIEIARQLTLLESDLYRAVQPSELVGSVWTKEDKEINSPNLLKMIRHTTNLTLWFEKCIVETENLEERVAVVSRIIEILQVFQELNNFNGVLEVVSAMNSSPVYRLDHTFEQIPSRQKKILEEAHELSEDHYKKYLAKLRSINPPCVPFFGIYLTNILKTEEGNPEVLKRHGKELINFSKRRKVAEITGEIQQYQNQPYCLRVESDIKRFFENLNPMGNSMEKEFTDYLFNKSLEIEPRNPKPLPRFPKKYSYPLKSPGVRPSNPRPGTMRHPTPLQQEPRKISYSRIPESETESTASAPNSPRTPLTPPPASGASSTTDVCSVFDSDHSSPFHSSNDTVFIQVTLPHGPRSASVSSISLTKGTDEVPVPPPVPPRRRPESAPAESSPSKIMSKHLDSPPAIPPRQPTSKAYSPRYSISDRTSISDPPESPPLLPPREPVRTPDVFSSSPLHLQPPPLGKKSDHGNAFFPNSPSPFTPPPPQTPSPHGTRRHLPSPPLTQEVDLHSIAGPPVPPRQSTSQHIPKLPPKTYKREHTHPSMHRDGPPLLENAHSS
pIC50: −log10 of the molar value.
measured_property: pIC50

compound="[2H][C@](C)(Nc1nc(C)nc2c(N3CCOCC3)c(=O)n(C3(CF)CC3)cc12)c1cccc(C(F)F)c1F [Example 55]" measured_property=pIC50 recorded_result=8.20
compound="COc1c(=O)n(N2CCOCC2)cc2c(N[C@H](C)c3cccc(C(F)F)c3F)nc(C)nc12 [Example 20]" measured_property=pIC50 recorded_result=8.13
compound="Cc1nc(N[C@H](C)c2cccc(C(F)F)c2F)c2cn(C3(CF)CC3)c(=O)c(N3CCOC[C@@H]3C)c2n1 [Example 40]" measured_property=pIC50 recorded_result=8.42
compound="Cc1nc(N[C@H](C)c2cccc(C(F)F)c2F)c2cn(C3(CF)CC3)c(=O)c(N3CCOCC3)c2n1 [Example 34]" measured_property=pIC50 recorded_result=8.18
compound="[2H]C([2H])([2H])Oc1c(=O)n(C2(CF)CC2)cc2c(N[C@H](C)c3cccc(C(F)F)c3F)nc(C)nc12 [Example 23]" measured_property=pIC50 recorded_result=8.38

###

test: Pharmacokinetics in mice after single intragastric or intravenous administration; assay type: in vivo; conditions: female, BALB/c nude, mouse, plasma, po, single intragastric administration, 50 mg/kg
measured_property: Tmax

chemical_structure=COc1c(=O)n(C2(CF)CC2)cc2c(N[C@H](C)c3cccc(C(F)F)c3F)nc(C)nc12 measured_property=Tmax recorded_result="24 min"

###

Test system: p-ERK pathway in H358 cells
Test: p-ERK pathway inhibition in H358 cells (Advanced phospho-ERK (Thr202/Tyr204) cellular kit, HTRF)
Type: cell-based
Conditions: Homo sapiens, NCI-H358, 1 h compound incubation
Description: The effect of the compounds of the present invention on H358 cell p-ERK pathway was assessed by Advanced phospho-ERK (Thr202/Tyr204) cellular kit method. […] After incubation overnight, 10 µL of a diluted test compound was added to each well using a multi-channel pipette, and the 96-well plate was cultured in an incubator at 37 °C with 5% CO2 for 1 h. […] HTRF on the microplate reader was selected for plate reading, Ratio = Signal 665 nm/Signal 620 nm × 10^4. […]
pIC50: −log10 of the molar value.
Listed below: pIC50 values for each entry.
measured_property: pIC50

molecule="Cc1nc(N[C@H](C)c2cccc(C(F)F)c2F)c2cn(C3(CF)CC3)c(=O)c(N3CC4CC(C3)O4)c2n1 [Example 174]" test_system="p-ERK pathway in H358 cells" measured_property=pIC50 recorded_result=7.69
molecule="Cc1nc(N[C@H](C)c2cccc(S(F)(F)(F)(F)F)c2)c2cn(N3CCOCC3)c(=O)cc2n1 [Example 18]" test_system="p-ERK pathway in H358 cells" measured_property=pIC50 recorded_result=7.10
molecule="Cc1nc(N[C@H](C)c2cccc(C(F)F)c2F)c2cn(C3(CF)CC3)c(=O)c(N3CCOC[C@@H]3CO)c2n1 [Example 135]" test_system="p-ERK pathway in H358 cells" measured_property=pIC50 recorded_result=7.23
molecule="[2H]C([2H])([2H])Oc1c(=O)n(C2(CF)CC2)cc2c(N[C@H](C)c3cccc([N+](=O)[O-])c3C)nc(C)nc12 [Example 30]" test_system="p-ERK pathway in H358 cells" measured_property=pIC50 recorded_result=7.53
molecule="Cc1nc(N[C@H](C)c2cccc(C(F)F)c2F)c2cn(C3(CF)CC3)c(=O)c(N3C[C@H]4C[C@@H]3CO4)c2n1 [Example 53]" test_system="p-ERK pathway in H358 cells" measured_property=pIC50 recorded_result=6.75
molecule="Cc1nc(N[C@H](C)c2cccc(C(F)F)c2F)c2cn(C3(CF)CC3)c(=O)c(N3CCOCC3)c2n1 [Example 34]" test_system="p-ERK pathway in H358 cells" measured_property=pIC50 recorded_result=8.04
molecule="Cc1nc(N[C@H](C)c2cccc(C(F)F)c2F)c2cn(N3CCOCC3)c(=O)c(N3CCN(C)CC3)c2n1 [Example 69]" test_system="p-ERK pathway in H358 cells" measured_property=pIC50 recorded_result=7.41
molecule="COc1c(=O)n(C2(CC#N)CC2)cc2c(N[C@H](C)c3cccc(C(F)F)c3F)nc(C)nc12 [Example 32]" test_system="p-ERK pathway in H358 cells" measured_property=pIC50 recorded_result=7.31
molecule="Cc1nc(N[C@H](C)c2cccc(C(F)F)c2F)c2cn(C3(CF)CC3)c(=O)c(N3CCN(CC4(C)COC4)CC3)c2n1 [Example 109]" test_system="p-ERK pathway in H358 cells" measured_property=pIC50 recorded_result=7.45
molecule="Cc1nc(N[C@H](C)c2cccc(C(F)F)c2F)c2cn(C3(CF)CC3)c(=O)c(C3(O)CCOC3)c2n1 (stereo partly shown) [Example 139]" test_system="p-ERK pathway in H358 cells" measured_property=pIC50 recorded_result=7.09
molecule="Cc1nc(N[C@H](C)c2cccc(C(F)F)c2F)c2cn(C3(CF)CC3)c(=O)c(Nc3cnn(C)c3)c2n1 [Example 93]" test_system="p-ERK pathway in H358 cells" measured_property=pIC50 recorded_result=7.04
molecule="Cc1nc(N[C@H](C)c2cccc(C(F)F)c2F)c2cn(C3(CF)CC3)c(=O)c(-c3c(C)noc3C)c2n1 [Example 123]" test_system="p-ERK pathway in H358 cells" measured_property=pIC50 recorded_result=6.95
molecule="[2H][C@](C)(Nc1nc(C)nc2c(N3CCS(=O)(=O)CC3)c(=O)n(C3(CF)CC3)cc12)c1cccc(C(F)F)c1F [Example 124]" test_system="p-ERK pathway in H358 cells" measured_property=pIC50 recorded_result=7.21
molecule="Cc1nc(N[C@H](C)c2cccc(C(F)F)c2F)c2cn(C3(CF)CC3)c(=O)c(N3CCN4CCC[C@@H]4C3)c2n1 (stereo in doubt) [Example 97]" test_system="p-ERK pathway in H358 cells" measured_property=pIC50 recorded_result=7.18
molecule="CCN(CC)c1c(=O)n(C2(CF)CC2)cc2c(N[C@H](C)c3cccc(C(F)F)c3F)nc(C)nc12 [Example 96]" test_system="p-ERK pathway in H358 cells" measured_property=pIC50 recorded_result=7.02
molecule="[2H]C([2H])([2H])Oc1c(=O)n(N2CCOCC2)cc2c(N[C@H](C)c3cccc(C(F)F)c3F)nc(C)nc12 [Example 48]" test_system="p-ERK pathway in H358 cells" measured_property=pIC50 recorded_result=6.94
molecule="[2H][C@](C)(Nc1nc(C)nc2c(N3CCOCC3)c(=O)n(N3CCOCC3)cc12)c1cccc(C(F)F)c1F [Example 78]" test_system="p-ERK pathway in H358 cells" measured_property=pIC50 recorded_result=7.40
molecule="Cc1nc(N[C@H](C)c2cccc(C(F)F)c2F)c2cn(C3(CF)CC3)c(=O)c(N3CCOC[C@H]3C)c2n1 [Example 39]" test_system="p-ERK pathway in H358 cells" measured_property=pIC50 recorded_result=7.41
molecule="Cc1nc(N[C@H](C)c2cccc(C(F)F)c2F)c2cn(C3(CF)CC3)c(=O)c(N3C[C@H]4CC[C@@H](C3)O4)c2n1 [Example 54]" test_system="p-ERK pathway in H358 cells" measured_property=pIC50 recorded_result=6.91
molecule="Cc1nc(N[C@H](C)c2cccc(C#N)c2C)c2cn(C3(CF)CC3)c(=O)c(-c3ccc(C#N)cc3)c2n1 [Example 71]" test_system="p-ERK pathway in H358 cells" measured_property=pIC50 recorded_result=6.81
molecule="COc1c(=O)n(N2CCOCC2)cc2c(N[C@H](C)c3cccc(C(F)F)c3F)nc(C)nc12 [Example 20]" test_system="p-ERK pathway in H358 cells" measured_property=pIC50 recorded_result=7.38
molecule="Cc1nc(N[C@H](C)c2cccc(C(F)F)c2F)c2cn(C3(CF)CC3)c(=O)c(N3CCN(CC(F)(F)F)CC3)c2n1 [Example 131]" test_system="p-ERK pathway in H358 cells" measured_property=pIC50 recorded_result=7.25
molecule="Cc1nc(N[C@H](C)c2cccc(C(F)(F)F)c2C)c2cn(C3(CF)CC3)c(=O)c(N3CCOC[C@@H]3C)c2n1 [Example 56]" test_system="p-ERK pathway in H358 cells" measured_property=pIC50 recorded_result=7.37
molecule="Cc1nc(N[C@H](C)c2cccc(C(F)F)c2F)c2cn(C3(CF)CC3)c(=O)c(NC3COC3)c2n1 [Example 61]" test_system="p-ERK pathway in H358 cells" measured_property=pIC50 recorded_result=7.79
molecule="COc1c(=O)n(N2CCOCC2)cc2c(N[C@H](C)c3cccc([N+](=O)[O-])c3C)nc(C)nc12 [Example 24]" test_system="p-ERK pathway in H358 cells" measured_property=pIC50 recorded_result=7.15
molecule="CNc1c(=O)n(C2(CF)CC2)cc2c(N[C@H](C)c3cccc(C(F)F)c3F)nc(C)nc12 [Example 77]" test_system="p-ERK pathway in H358 cells" measured_property=pIC50 recorded_result=7.11
molecule="Cc1nc(N[C@H](C)c2cccc(C(F)F)c2F)c2cn(C3(CF)CC3)c(=O)c(N(C)c3cnn(C)c3)c2n1 [Example 65]" test_system="p-ERK pathway in H358 cells" measured_property=pIC50 recorded_result=7.57
molecule="Cc1nc(N[C@H](C)c2cccc(C(F)F)c2F)c2cn(C3(CF)CC3)c(=O)c(NC[C@@H]3CCO3)c2n1 [Example 105]" test_system="p-ERK pathway in H358 cells" measured_property=pIC50 recorded_result=7.01
